Target: GluN2B glutamate receptors (Homo sapiens (Human), UniProt Q05586+Q13224)
Sequence (Q13224 27-1484, other chains not shown): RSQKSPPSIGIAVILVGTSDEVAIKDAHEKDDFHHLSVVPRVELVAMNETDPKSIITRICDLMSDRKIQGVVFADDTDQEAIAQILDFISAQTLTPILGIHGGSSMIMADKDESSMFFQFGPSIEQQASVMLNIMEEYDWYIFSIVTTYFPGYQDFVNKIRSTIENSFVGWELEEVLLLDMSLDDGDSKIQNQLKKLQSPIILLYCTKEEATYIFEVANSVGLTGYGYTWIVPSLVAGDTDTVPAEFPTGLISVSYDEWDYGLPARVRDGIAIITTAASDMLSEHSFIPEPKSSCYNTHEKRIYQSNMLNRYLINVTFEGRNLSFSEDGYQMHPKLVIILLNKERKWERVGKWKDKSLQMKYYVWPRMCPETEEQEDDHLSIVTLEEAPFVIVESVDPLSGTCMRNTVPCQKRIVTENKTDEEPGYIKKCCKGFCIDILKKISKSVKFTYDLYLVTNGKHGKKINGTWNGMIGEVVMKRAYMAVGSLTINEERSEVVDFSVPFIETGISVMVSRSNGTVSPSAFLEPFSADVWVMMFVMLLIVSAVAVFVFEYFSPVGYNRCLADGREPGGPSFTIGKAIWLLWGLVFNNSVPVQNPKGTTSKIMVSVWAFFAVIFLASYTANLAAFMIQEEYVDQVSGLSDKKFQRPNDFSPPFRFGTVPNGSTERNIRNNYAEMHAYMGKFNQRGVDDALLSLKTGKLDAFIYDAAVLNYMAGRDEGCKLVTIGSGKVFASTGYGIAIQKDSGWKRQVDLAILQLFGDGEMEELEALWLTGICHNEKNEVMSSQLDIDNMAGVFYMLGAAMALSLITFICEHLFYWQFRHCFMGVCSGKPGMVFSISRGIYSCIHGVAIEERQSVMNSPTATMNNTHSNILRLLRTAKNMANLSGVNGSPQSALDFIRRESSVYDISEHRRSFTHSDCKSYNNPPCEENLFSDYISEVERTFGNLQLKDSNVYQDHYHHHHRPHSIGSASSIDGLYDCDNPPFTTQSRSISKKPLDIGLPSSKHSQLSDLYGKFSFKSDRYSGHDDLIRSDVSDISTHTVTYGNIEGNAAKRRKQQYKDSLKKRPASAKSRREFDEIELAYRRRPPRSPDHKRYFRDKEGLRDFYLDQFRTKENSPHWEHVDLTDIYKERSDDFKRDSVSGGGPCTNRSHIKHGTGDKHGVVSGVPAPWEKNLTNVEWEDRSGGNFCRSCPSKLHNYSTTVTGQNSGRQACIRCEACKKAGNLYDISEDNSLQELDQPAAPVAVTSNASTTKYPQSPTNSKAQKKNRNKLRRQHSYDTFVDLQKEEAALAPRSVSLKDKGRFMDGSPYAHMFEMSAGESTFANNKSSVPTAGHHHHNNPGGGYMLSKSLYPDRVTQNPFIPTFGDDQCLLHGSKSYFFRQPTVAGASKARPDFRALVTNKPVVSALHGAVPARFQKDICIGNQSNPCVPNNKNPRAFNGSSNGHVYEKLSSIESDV
Assay: Whole-cell patch clamp of mammalian cells (Ionworks Barracuda), positive allosteric modulation, GluN2B
Format: cell-based
Measured Parameter: EC50 (nM)
One number for each entry, in nM.

CC[C@]1(O)CC[C@@]2(C)C(=CC[C@H]3[C@@H]4CC[C@H]([C@H](C)CC[C@H](O)c5cccc(F)c5)[C@@]4(C)CC[C@@H]32)C1 1680

In the following, a different compound is considered.
Which EC50 is listed for CC[C@]1(O)CC[C@@]2(C)C(=CC[C@H]3[C@@H]4CC[C@H]([C@H](C)CC[C@@H](O)c5ccccc5C#N)[C@@]4(C)CC[C@@H]32)C1 ?
1580

====

Please go through the items and note down their pEC50.
Biological target: GluN2B glutamate receptors (Homo sapiens (Human), UniProt Q05586+Q13224)
Assay: Whole-cell patch clamp of mammalian cells (Ionworks Barracuda), positive allosteric modulation, GluN2B
Format: cell-based
Numbers only, as −log10 of the molar value.

Recorded pEC50, per entry:
Molecule	pEC50
C[C@H](O)CC[C@@H](C)[C@H]1CC[C@H]2[C@@H]3CC[C@H]4C[C@](O)(C(F)(F)F)CC[C@]4(C)[C@H]3CC[C@]12C	6.13
CC[C@]1(O)CC[C@H]2[C@@H](CC[C@@H]3[C@@H]2CC[C@]2(C)[C@@H]([C@H](C)CCC4(O)CC4)CC[C@@H]32)C1	6.24
C[C@H](CC[C@@H](O)C(F)(F)F)[C@H]1CC[C@H]2[C@@H]3CC=C4C[C@](O)(C(F)(F)F)CC[C@]4(C)[C@H]3CC[C@]12C	7.22

Below is a list of molecules. For each, state its recorded pEC50.
1. CC[C@]1(O)CC[C@@]2(C)C(=CC[C@H]3[C@@H]4CC[C@H]([C@H](C)CC[C@@H](O)c5cccc(C#N)c5)[C@@]4(C)CC[C@@H]32)C1
2. CC[C@]1(O)CC[C@H]2C(=CC[C@@H]3[C@@H]2CC[C@]2(C)[C@@H]([C@H](C)CC[C@@H](O)C(C)(C)C)CC[C@@H]32)C1
3. CC[C@]1(O)CC[C@@]2(C)C(=CC[C@H]3[C@@H]4CC[C@H]([C@H](C)CC[C@H](O)c5ccccc5)[C@@]4(C)CC[C@@H]32)C1
4. C[C@H](CC[C@H](O)C(C)(C)C)[C@H]1CC[C@H]2[C@@H]3CC=C4C[C@](O)(C(F)(F)F)CC[C@]4(C)[C@H]3CC[C@]12C
5. COC[C@H]1CC[C@@](O)(CC[C@@H](C)[C@H]2CC[C@H]3[C@@H]4CC[C@H]5C[C@](O)(C(F)(F)F)CC[C@]5(C)[C@H]4CC[C@]23C)CC1

[6.38, 7.11, 6.75, 6.72, 5.66]

====

Biological target: GluN2B glutamate receptors (Homo sapiens (Human), UniProt Q05586+Q13224)
Assay: Whole-cell patch clamp of mammalian cells (Ionworks Barracuda), positive allosteric modulation, GluN2B
Assay type: cell-based
Details: read-out: Avg Emax 2B (%)
We use 50% as the dividing line for Emax: on or above the line is YES, below is NO.

Emax >= 50% for CC[C@H](O)CC[C@@H](C)[C@H]1CC[C@H]2[C@@H]3CC[C@H]4C[C@](O)(CC)CC[C@@H]4[C@H]3CC[C@]12C ?
YES

Now give it for CC[C@H](O)CCC[C@@H](C)[C@H]1CC[C@H]2[C@@H]3CC=C4C[C@](O)(CC)CC[C@@H]4[C@H]3CC[C@]12C too.
YES

Request: C[C@H](CC[C@](C)(O)C(F)(F)F)[C@H]1CC[C@H]2[C@@H]3CC=C4C[C@@](C)(O)CC[C@@H]4[C@H]3CC[C@]12C
YES

Same question, CC[C@@H](O)CC[C@@H](C)[C@H]1CC[C@H]2[C@@H]3CC[C@H]4C[C@](O)(CC)CC[C@@H]4[C@H]3CC[C@]12C this time
NO

Same read-out for C[C@H](CCC(O)C(C)(C)C)[C@H]1CC[C@H]2[C@@H]3CC[C@H]4C[C@](O)(C(F)(F)F)CC[C@]4(C)[C@H]3CC[C@]12C (some centres unmarked) ?
YES
